These measurements were taken from PubChem BioAssay (NCATS).

Could you please report measured z-score for the items listed next?
assay: qHTS for identification of novel therapeutic agents for treatment of microphthalmiaassociated transcription factor (MiT) renal cell carcinoma (RCC) (AID 1963991); conditions: TFE3-RCC viability, CellTiter-Glo, 48 h; measured here: UOK145 Z-AUC; stronger effect = lower value;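 also: curves scaled with 100% = DMSO viability and 0% = empty wells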
Inconclusive results are not listed.
Please reply with the number alone, leaving off any unit.

Name the recorded z-score for Nc1nc(N)nc(-c2cc(Cl)ccc2Cl)n1 .
0.276

What does the record list as z-score for O=C(O)CCn1c2c(c3ccccc31)C[C@H](NS(=O)(=O)c1ccc(F)cc1)CC2 ?
0.766

May I ask what z-score has been recorded for NNC(=O)c1ccncc1 ?
0.436

Recorded z-score of Cc1nnc(C(=O)NC(C)(C)c2nc(C(=O)NCc3ccc(F)cc3)c(O)c(=O)n2C)o1 , please.
1.94

GET /values?readout=z-score&item= CN(C)CCc1c[nH]c2ccc(C[C@H]3COC(=O)N3)cc12
0.58

Recorded z-score of Cc1cccc(Nc2ccncc2S(=O)(=O)NC(=O)NC(C)C)c1 , please.
0.58

Would you kindly share the measured z-score for CN(C)CCc1c[nH]c2ccc(CS(=O)(=O)N3CCCC3)cc12 ?
0.603

Looking for the measured z-score of CCN(C)C(=O)Oc1cccc([C@H](C)N(C)C)c1 , can you help?
1.29

Fill in: z-score of CCC(C)(C)c1ccc(CC(C)CN2C[C@@H](C)O[C@@H](C)C2)cc1 (stereo partly specified) is ___
1.19

Which z-score value belongs to CCOc1cc(N)c(Cl)cc1C(=O)NCC1CN(Cc2ccc(F)cc2)CCO1 (stereo unspecified) ?
0.352

Fill blank: measured z-score of the compound O=C(O)c1cn(C2CC2)c2cc(N3CCNCC3)c(F)cc2c1=O is ____.
1.11

* * *

tested on: WaGa; test: qHTS assay to identify novel small-molecules to repurpose for Merkel cell carcinoma treatment (AID 1296009); conditions: MCC and control cell lines, CellTiter-Glo viability, 72 h; series mostly up to 46 µM; also: nearly all actives have a fitted effect of over 60% in size
Results filed as inconclusive are left out. Activity calls are given as the source filed them. The call rests on the fitted dose curve; in most records, active means well fitted inhibition curve with a large enough effect; inconclusive means small, poorly fitted or top-dose-only effect; inactive means flat fitted curve, though single readings scatter.
Parameter call: string, one of active, inactive

What did this assay record as the result for CCN[C@H]1C[C@H](C)S(=O)(=O)c2sc(S(N)(=O)=O)cc21 ?
inactive

Which outcome did this test record for the compound C[C@@H]1C[C@H]2[C@@H]3CCC4=CC(=O)C=C[C@]4(C)[C@@]3(Cl)[C@@H](O)C[C@]2(C)[C@@]1(OC(=O)c1ccco1)C(=O)CCl ?
active

Test call for this compound, please: CNC1CCCN(c2c(F)cc3c(=O)c(C(=O)O)cn(C4CC4)c3c2OC)C1 (stereo unspecified)
inactive

Tell me the assay call for Cn1nnc2c(C(N)=O)ncn2c1=O please.
inactive

Hi, sorry to bother you, what did the test record for C1CCC(C(CC2CCCCN2)C2CCCCC2)CC1 (stereo unspecified) ?
active

Look up the recorded call for CN(Cc1cc(Br)cc(Br)c1N)C1CCCCC1 in this test.
inactive

Could you please tell me the result logged for O=C(O)C1CCCN(CCC=C(c2ccccc2)c2ccccc2)C1 (stereo unspecified) in this assay?
inactive

What did the test return for Cc1cccc(N(C)C(=S)Oc2ccc3ccccc3c2)c1 ?
inactive

Tell me the recorded outcome of this test for CCOC(=O)c1ccc(C#Cc2ccc3c(c2)C(C)(C)CCS3)nc1 .
inactive

State the result this test recorded for CC(C)NCC(O)c1ccc(NS(C)(=O)=O)cc1 (stereo unspecified) .
inactive

Would you mind telling me which call this test gave CCN(C)C(=O)Oc1cccc([C@H](C)N(C)C)c1 ?
inactive
